Record: compiled IC50 on Serine/threonine-protein kinase Chk1 (Homo sapiens, UniProt O14757) from multiple reports.

| Structure smiles | Measurement target | Data value |
| --- | --- | --- |
| Brc1cnc(Nc2cccc(CN3CC=CC3)c2)nc1NCCc1c[nH]cn1 | Serine/threonine-protein kinase Chk1 (Homo sapiens, UniProt O14757) | 440 nM |

Challenge: Returns the measured IC50 for the input compound. Input: CCN(CC)CCOc1ccc2[nH]c(-c3cc(NC(=O)c4cnn(Cc5ccc(C(C)(C)C)cc5)c4)c[nH]c3=O)cc2c1
Response given: 500 to 1500 nM

Challenge: Returns the measured IC50 for the input compound. Input: NS(=O)(=O)c1ccccc1CNc1c(Nc2ccc3[nH]cnc3c2)c(=O)c1=O
Response given: > 1000 nM

Challenge: Returns the measured IC50 for the input compound. Input: CC[C@H](Nc1c(Nc2ccc3[nH]cnc3c2)c(=O)c1=O)c1cccc(OC)c1
Response given: > 1000 nM

Challenge: Returns the measured IC50 for the input compound. Input: O=c1c(NCc2cccc(O)c2)c(Nc2ccc(O)c(-c3ccccn3)c2)c1=O
Response given: < 100 nM

Challenge: Returns the measured IC50 for the input compound. Input: COc1cccc(OC[C@@H]2CNCCS2)c1-c1cc(Nc2cnc(C#N)cn2)n[nH]1
Response given: 0.79 nM
